# assay.target: T1, ZFP SBS#842 (synthetic, UniProt P08047)
# T1 chain: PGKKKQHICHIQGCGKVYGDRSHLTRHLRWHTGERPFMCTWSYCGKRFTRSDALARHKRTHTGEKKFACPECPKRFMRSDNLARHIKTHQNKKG
# test.method.notes: EMSA
# condition.context: tags: MBP fusion

{"binder": "GAGGTGGGCT (dsDNA) DNA 1: GAGGTGGGCT DNA 2: AGCCCACCTC", "Kd": "5.4 nM"}
